The molecules below each have a reported pIC50 tested on Vascular endothelial growth factor receptor 2 (Homo sapiens); the values come from various publications.
The quantity pIC50 is defined as the negative base-10 logarithm of the molar concentration.

Examples with answers:
# input Item under review: `COc1cc2ncnc(Nc3ccc(O)cc3)c2cc1OC` . Reported pIC50?
# output 5.55

# input Further, for `O=C(Nc1ccc(-c2ccc3c(=O)[nH]cnc3c2)cc1)Nc1cccc(Cl)c1` ?
# output 7.24

# input Further, for `CN(c1ccc2c(ccn2C)c1)c1ccnc(Nc2ccc(N3CCOCC3)cc2)n1` ?
# output 6.44

# input Further, for `O=C1CCCc2cc(-c3ccnc(Nc4cccc(O)c4)n3)ccc2N1` ?
# output 6.11

# input Further, for `NC(=O)c1cc(Oc2ccc(NC(=O)Nc3ccc(Cl)c(C(F)(F)F)c3)c(F)c2)ccn1` ?
# output 7.43

New cases:
# input Item under review: `c1cc(Nc2ccc3[nH]ccc3c2)nc(Nc2ccc(N3CCOCC3)cc2)n1` . Reported pIC50?
# output 7.30

# input Further, for `COc1cccc(Nc2ncnc3cc(OC)c(OC)cc23)c1` ?
# output 5.32

# input Further, for `CCNC(=O)c1nc2ccc(C(=O)c3cccc(NC(=O)c4cccc(C(F)(F)F)c4)c3)cc2[nH]1` ?
# output 6.41

# input Further, for `O=C1CCCc2cc(-c3ccnc(Nc4ccc([N+](=O)[O-])cc4)n3)ccc2N1` ?
# output 4.96

# input Further, for O=c1cc(-c2ccccc2)c2ccc(OCc3nnn(CC(O)CO)n3)cc2o1 (centres unmarked) ?
# output 6.07

# input Further, for `Cc1cc(Cl)cc2c(=O)n(Cc3ccccc3)c(SCC(=O)NN)nc12` ?
# output 5.51

# input Further, for `Cc1cc(C)n(C(=O)CNC(=O)Cn2c(=O)[nH]c3ccccc3c2=O)n1` ?
# output 6.99

====

The compounds below each have a reported IC50 tested on Vascular endothelial growth factor receptor 2 (Homo sapiens); the values come from various publications.
Just the number in µM, nothing appended.

Examples with answers:
# input Which IC50 is reported with Vascular endothelial growth factor receptor 2 (Homo sapiens) for this entry: CC(NC(=O)c1cccc(C(=O)NC(C)C(=O)N/N=C2/C(=O)Nc3ccccc32)c1)C(=O)N/N=C1\C(=O)Nc2ccccc21 (stereo not drawn) ?
# output 3.17

# input Further, for `CNC(=O)c1ccccc1Sc1ccc2c(N=Nc3ccc(N(C)C)cc3)n[nH]c2c1` ?
# output 0.135

# input Further, for `O=C(Nc1ccc(-c2ccc3c(=O)[nH]cnc3c2)cc1)Nc1ccc(C(F)(F)F)cc1` ?
# output 0.0507

# input Further, for `O=C(CSc1nc2cc(Cl)ccc2o1)Nc1ccc(C(=O)NC2CCCCC2)cc1` ?
# output 0.649

# input Further, for `COc1cc2ncnc(Nc3ccc(C)c(O)c3)c2cc1OC` ?
# output 0.018

New cases:
# input Which IC50 is reported with Vascular endothelial growth factor receptor 2 (Homo sapiens) for this entry: O=C(CSc1nc2ccccc2o1)NN=Cc1ccc[nH]1 (mixture of isomers) ?
# output 0.565

# input Further, for `N#CC1(c2ccc(NC(=O)c3cccnc3NCc3ccncc3)cc2)CCCC1` ?
# output 0.016

# input Further, for `CNC(=O)c1ccccc1Sc1ccc2c(N=Nc3ccc(N)cc3OC)n[nH]c2c1` ?
# output 0.195

# input Further, for `COc1ccc(/C(C)=N/N=C2/C(=O)Nc3ccc(Br)cc32)cc1S(N)(=O)=O` ?
# output 0.0567

# input Further, for `O=C(Nc1ccc(C(=O)NC2CCCCC2)cc1)c1cccnc1` ?
# output 2.46

# input Further, for `CCOC(=O)CSc1nc2ccc(Cl)cc2c(=O)n1Cc1ccccc1` ?
# output 1.92

# input Further, for `CC(=NNC(N)=O)c1ccc(NC(=O)c2cccnc2)cc1` ?
# output 0.0636

# input Further, for COC(=O)C(CCSC)NC(=O)CCNC(=O)c1cc2ccccc2oc1=O (stereo not drawn) ?
# output 34.2
